Each entry below lists one item and its recorded log10(IC50) value.
# study target: recombinant human Lysyl Oxidase-Like 2 (LOXL2) (Homo sapiens, UniProt Q9Y4K0)
# Construct: purchased R&D systems
# Sequence (Q9Y4K0 26-774): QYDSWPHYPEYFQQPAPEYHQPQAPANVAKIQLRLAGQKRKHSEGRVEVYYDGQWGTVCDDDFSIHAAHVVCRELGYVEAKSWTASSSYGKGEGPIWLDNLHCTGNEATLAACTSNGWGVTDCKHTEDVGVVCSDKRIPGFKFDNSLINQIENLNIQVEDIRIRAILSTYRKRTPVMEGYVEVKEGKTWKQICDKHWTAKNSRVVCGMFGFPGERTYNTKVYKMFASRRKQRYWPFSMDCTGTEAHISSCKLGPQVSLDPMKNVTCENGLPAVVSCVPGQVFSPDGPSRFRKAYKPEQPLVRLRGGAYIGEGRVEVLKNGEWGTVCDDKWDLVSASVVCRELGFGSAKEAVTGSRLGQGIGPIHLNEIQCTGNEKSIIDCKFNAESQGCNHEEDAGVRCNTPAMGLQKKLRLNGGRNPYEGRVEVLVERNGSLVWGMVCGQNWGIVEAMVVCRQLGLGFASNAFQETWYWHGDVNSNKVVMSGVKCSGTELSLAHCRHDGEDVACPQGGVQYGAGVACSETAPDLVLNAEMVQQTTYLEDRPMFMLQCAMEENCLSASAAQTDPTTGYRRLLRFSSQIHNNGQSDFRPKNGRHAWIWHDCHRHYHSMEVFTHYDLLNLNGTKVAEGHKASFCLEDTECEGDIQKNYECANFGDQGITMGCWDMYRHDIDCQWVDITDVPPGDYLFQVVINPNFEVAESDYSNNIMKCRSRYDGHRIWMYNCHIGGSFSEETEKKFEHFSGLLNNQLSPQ
# assay: Amplex Red HRP-coupled amine oxidase assay, recombinant human LOXL2
# Format: biochemical
# condition info: 60 min incubation with enzyme at 37° C., putrescine substrate, read-out: Inhibitory activity (IC50, nM) human LOXL2
# Method: The activities of the compounds according to the present invention against recombinant human Lysyl Oxidase-Like 2 (recombinant human LOXL2, R&D systems) were evaluated by measuring the levels of hydrogen peroxide in the HRP (horseradish peroxidase) coupled reactions, with the Amplex Red Hydrogen Peroxide Assay Kit (Molecular Probes, Invitrogen, USA). […] Inhibition by each compound was measured as % reduction in signal, compared to the control without an inhibitor (diluted DMSO only). […]
Counter-ions that a name gives are not always drawn.
parameter: log10(IC50) (log10 of the value in nM)

compound | log10(IC50)
CNS(=O)(=O)c1cccc(-c2cc(C(F)(F)F)cc3c2ncn3C/C(F)=C/CN)c1 [Example 20, hydrochloride] | 1.89
CONC(=O)c1cc(-c2cc(S(=O)(=O)NC3CC3)ccc2OC)c2nnn(C/C(F)=C/CN)c2c1 [Example 136, hydrochloride] | 0.81
CON(C)C(=O)c1cc(-c2cccc(S(=O)(=O)N(C)C)c2)c2nnn(C/C(F)=C/CN)c2c1 | 1.84
NC/C=C(\F)Cn1nnc2c(-c3cncc(Cl)c3)cc(C(F)(F)F)cc21 [Example 201, hydrochloride] | 2.15
CNS(=O)(=O)c1ccc(OC)c(-c2cccc3c2nnn3C/C(F)=C/CN)c1 [Example 105, hydrochloride] | 1.41
Cn1nc(C(F)(F)F)cc1-c1cc(C(F)(F)F)cc2c1ncn2C/C(F)=C/CN [Example 179, hydrochloride] | 2.70
CCN(CC)S(=O)(=O)c1ccc(OC)c(-c2cc(C(=O)OC)cc3c2ncn3C/C(F)=C/CN)c1 [Example 26, hydrochloride] | 1.80
